Quick reference: Percent Enhancement of Insulin Secretion (10 μM) of the listed items.
System: Beta-TC-6 cells
Experiment: Insulin release enhancement in Beta-TC-6 cells (insulin ELISA)
Type: cell-based, mouse
Conditions: compound at 10 μM; compared to glucose-dependent insulin production
// note: answer is a bare numeric in %

### Prompt Please state recorded Percent Enhancement of Insulin Secretion (10 μM) (tested on Beta-TC-6 cells) of COc1ccc(/C=N/NC(=O)Cc2cccc3ccccc23)cc1OC [Example 3]
### Response 250

### Prompt One more compound: COc1ccc(/C=N/NC(=O)COc2cccc(C)c2)cc1OC [Example 8]
### Response 39

### Prompt Would you mind doing COc1ccc(/C=N/NC(=O)CSc2cc(C)c3cccc(C)c3n2)cc1OC [Example 24] as well?
### Response 207

Next:
### Prompt Requested read-out Percent Enhancement of Insulin Secretion (10 μM), target or system Beta-TC-6 cells, entry COc1ccc(/C=N/NC(=O)C2CC2c2ccccc2)cc1OC (centres unmarked) [Example 4]
### Response 111

### Prompt Cool, now COc1ccc(/C=N/NC(=O)CCn2c3ccccc3c3ccccc32)cc1OC [Example 23]
### Response 208

* * *

Molecular target: TRPM5 (Homo sapiens)
Sequence (Q9NZQ8 whole entry, species assumed): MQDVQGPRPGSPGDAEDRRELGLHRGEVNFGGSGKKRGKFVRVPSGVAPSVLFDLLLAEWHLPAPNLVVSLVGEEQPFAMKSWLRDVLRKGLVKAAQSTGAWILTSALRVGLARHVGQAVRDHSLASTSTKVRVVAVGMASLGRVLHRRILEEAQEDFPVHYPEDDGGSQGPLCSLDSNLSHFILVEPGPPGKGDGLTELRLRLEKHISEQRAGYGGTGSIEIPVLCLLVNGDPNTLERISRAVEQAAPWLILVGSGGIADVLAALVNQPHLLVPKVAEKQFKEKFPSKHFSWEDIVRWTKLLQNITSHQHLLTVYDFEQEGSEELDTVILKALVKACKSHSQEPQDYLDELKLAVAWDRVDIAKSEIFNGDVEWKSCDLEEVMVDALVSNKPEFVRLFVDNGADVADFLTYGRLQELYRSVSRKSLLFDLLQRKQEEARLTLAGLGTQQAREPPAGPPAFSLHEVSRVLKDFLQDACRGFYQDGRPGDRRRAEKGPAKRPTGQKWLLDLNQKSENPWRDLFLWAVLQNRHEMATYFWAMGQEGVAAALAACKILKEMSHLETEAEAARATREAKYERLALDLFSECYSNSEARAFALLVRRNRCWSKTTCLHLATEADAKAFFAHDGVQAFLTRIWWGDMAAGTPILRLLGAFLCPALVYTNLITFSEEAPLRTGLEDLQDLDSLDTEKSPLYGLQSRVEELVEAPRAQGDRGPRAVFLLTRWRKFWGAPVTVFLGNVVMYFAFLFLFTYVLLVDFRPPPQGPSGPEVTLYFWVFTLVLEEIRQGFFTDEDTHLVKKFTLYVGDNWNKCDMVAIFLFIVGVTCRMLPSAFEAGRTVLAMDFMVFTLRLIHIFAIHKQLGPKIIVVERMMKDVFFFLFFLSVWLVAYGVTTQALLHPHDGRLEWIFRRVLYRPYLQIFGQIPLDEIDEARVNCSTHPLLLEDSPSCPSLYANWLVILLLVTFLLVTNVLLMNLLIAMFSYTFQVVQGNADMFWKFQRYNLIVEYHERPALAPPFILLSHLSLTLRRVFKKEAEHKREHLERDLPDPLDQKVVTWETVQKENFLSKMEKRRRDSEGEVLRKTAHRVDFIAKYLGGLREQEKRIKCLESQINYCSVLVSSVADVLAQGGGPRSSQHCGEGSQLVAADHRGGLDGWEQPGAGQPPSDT
Assay: TRPM5 inhibition (FLIPR Membrane Potential Assay)
The following compounds are listed with their measured pIC50 values.
Conceptually, pIC50 converts a concentration in mol/L into minus its log10.

### Prompt Need pIC50, item COc1ccc(/C=N/NC(=O)C2CC2c2ccccc2)cc1OC (centres unmarked) [Example 4]
### Response 6.22

### Prompt Then what about the compound COc1ccc(/C=N/NC(=O)Cc2cccc3ccccc23)cc1OC [Example 3] ?
### Response 6.22

### Prompt Try this compound too: COc1ccc(/C=N/NC(=O)CCn2c3ccccc3c3ccccc32)cc1OC [Example 23]
### Response 6.30

### Prompt What about this compound? COc1ccc(/C=N/NC(=O)COc2cccc(C)c2)cc1OC [Example 8]
### Response 5.52

### Prompt # iterate: COc1ccc(/C=N/NC(=O)CSc2cc(C)c3cccc(C)c3n2)cc1OC [Example 24]
### Response 6.40
